# SYSTEM: Acyl-CoA : cholesterol acyltransferase (ACAT) (Rattus norvegicus, UniProt Q7TQM4)
# Construct: from the mucosal microsome fraction of the small intestine of male, 6-week old Sprague-Dawley rats; from tissue; host or cells: mucosal microsome fraction of the small intestine of male 6-week old Sprague-Dawley rats, fasted for 20 hours
# Sequence (Q7TQM4 whole entry): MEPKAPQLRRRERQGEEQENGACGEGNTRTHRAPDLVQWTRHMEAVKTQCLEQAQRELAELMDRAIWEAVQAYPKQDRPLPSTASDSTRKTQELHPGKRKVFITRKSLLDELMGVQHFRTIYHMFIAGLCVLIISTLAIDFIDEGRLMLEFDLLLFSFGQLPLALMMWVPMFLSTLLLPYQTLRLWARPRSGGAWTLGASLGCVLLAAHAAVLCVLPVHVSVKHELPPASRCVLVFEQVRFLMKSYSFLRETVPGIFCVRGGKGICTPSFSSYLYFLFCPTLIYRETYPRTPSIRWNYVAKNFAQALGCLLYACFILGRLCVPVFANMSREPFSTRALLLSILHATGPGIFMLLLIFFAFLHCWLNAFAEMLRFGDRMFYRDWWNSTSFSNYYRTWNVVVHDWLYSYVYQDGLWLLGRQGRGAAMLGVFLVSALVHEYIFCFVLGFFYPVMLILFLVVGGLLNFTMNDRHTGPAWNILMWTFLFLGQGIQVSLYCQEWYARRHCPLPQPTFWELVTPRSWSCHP
# PROTOCOL_SUMMARY: Acyl-CoA : cholesterol acyltransferase (ACAT) inhibitory activity: production of labeled cholesterol ester from [1-^14 C] oleoyl-CoA and endogenous cholesterol
# Type: biochemical
# CONDITION_DETAILS: 10^-6 M test compound; read-out: ACAT Inhibition Rate
# Description: 1. Acyl-CoA : cholesterol acyltransferase (ACAT) inhibitory activity. […] ACAT activity was calculated by the method of Helgerud et al. described in Journal of Lipid Research, Vol. 22, page 271 (1981), namely, by measuring the amount of the labeled cholesterol ester produced from [1-^14 C] oleoyl-CoA and endogenous cholesterol. […]
PROPERTY: inhibition at 1 µM (%)
Field: numeric (%). Do not append units.

O=C(Nc1ccc(F)cc1F)Nc1cnc2ccc(Cl)cc2c1-c1ccccc1: 88.3
Cc1cc(C)c2ncc(NC(=O)Nc3ccc(F)cc3F)c(-c3ccccc3C)c2c1: 98.5

Query block: Specify measured inhibition at 1 µM for Cc1cccc2ncc(NC(=O)Nc3ccc(F)cc3F)c(-c3ccccc3Cl)c12 .
Result block: 87.3

Query block: State its inhibition at 1 µM for this compound: CC(C)c1ccc2ncc(NC(=O)Nc3ccc(F)cc3F)c(-c3ccccc3)c2c1
Result block: 91.6

Query block: Read the entry CC(C)c1ccc2ncc(NC(=O)Nc3ccc(F)cc3F)c(-c3ccccc3Cl)c2c1 and write its reported inhibition at 1 µM.
Result block: 99.3

Query block: Give reported inhibition at 1 µM value for Cc1ccc(-c2c(NC(=O)Nc3ccc(F)cc3F)cnc3ccc(Cl)cc23)cc1
Result block: 87.4

Query block: Please report inhibition at 1 µM for the following compound: Cc1cc(C)c2ncc(NC(=O)Nc3c(F)cc(F)cc3F)c(-c3ccccc3Cl)c2c1
Result block: 97.3

Query block: Complete the entry with inhibition at 1 µM for Cc1cc2ncc(NC(=O)Nc3ccc(F)cc3F)c(-c3ccccc3Cl)c2cc1C
Result block: 99.6
